- Protocol details: Cmax in mouse at 25 mg/kg, po by LC-MS/MS analysis
- Format: ADME, organism-based
- Design: dose 25 mg/kg, route po
- Condition description: in vivo
Observable: Cmax (ng/mL)
Answers are plain numbers, in ng/mL.

Item under review: `Clc1cccc(N2CCN(c3cnnc4c(Cl)cccc34)CC2)c1` . Reported Cmax?
110

====

- Protocol details: Half life in mouse at 25 mg/kg, po by LC-MS/MS analysis
- Format: ADME, organism-based
- Condition description: in vivo
Observable: half-life (h)
Numbers only, in h.

Item under review: `Clc1cccc(N2CCN(c3cnnc4c(Cl)cccc34)CC2)c1` . Reported half-life?
4.57

====

Provide the reported log10(solubility kinetic at 16 h) of each item.
- Protocol details: Kinetic solubility of the compound in DPBS buffer at pH 7.4 incubated for 16 hrs under shaking condition by HPLC analysis
- Type: physicochemical
- Condition description: read-out: Kinetic_solubility
Please keep in mind that the values are log10 of solubility kinetic at 16 h expressed in µM.

Mol | log10(solubility kinetic at 16 h)
CN(C)CCCOc1cc(Cl)cc(N2CCN(c3cnnc4c(Cl)cccc34)CC2)c1 | 1.68
CN(C)CCOc1cc(Cl)cc(N2CCN(c3cnnc4c(Cl)cccc34)CC2)c1 | 2.12
NCCOc1cc(Cl)cc(N2CCN(c3cnnc4c(Cl)cccc34)CC2)c1 | 1.58

Okay, here is my list. What is log10(solubility kinetic at 16 h) for each of these?
1. OCCOc1cc(Cl)cc(N2CCN(c3cnnc4c(Cl)cccc34)CC2)c1
2. COC(=O)CCOc1cc(Cl)cc(N2CCN(c3cnnc4c(Cl)cccc34)CC2)c1

1: 1.11; 2: 1.91

====

- Protocol details: Tmax in mouse at 10 mg/kg, po by LC-MS/MS analysis
- Assay type: ADME, organism-based
- Condition description: in vivo
Observable: Tmax (min)
Answers are plain numbers, in min.

Item under review: `COc1cc(Cl)cc(N2CCN(c3cnnc4c(Cl)cccc34)CC2)c1` . Reported Tmax?
40.2

====

- Protocol details: Tmax in mouse at 25 mg/kg, po by LC-MS/MS analysis
- Assay type: ADME, organism-based
- Condition description: in vivo
Observable: Tmax (min)
Answers are plain numbers, in min.

Item under review: `Clc1cccc(N2CCN(c3cnnc4c(Cl)cccc34)CC2)c1` . Reported Tmax?
30

====

- Tested on: RD
- Protocol details: cells
- Condition description: Homo sapiens, 72 h
Provide the reported IC50 of each item.

Molecule | Observable | Val
Clc1cccc(N2C[C@@H]3CN(c4cnnc5c(Cl)cccc45)C[C@@H]3C2)c1 | IC50 | > 20 µM

Okay, here is my list. What is IC50 for each of these?
1. Clc1cccc(N2CCN(c3cc(-c4ccccc4)ncn3)CC2)c1
2. Clc1cccc(N2CCN(c3ncnc4ccccc34)CC2)c1
3. Clc1cccc(C2CCN(c3cnnc4c(Cl)cccc34)CC2)c1
4. COc1ccc2c(N3CCN(c4cccc(Cl)c4)CC3)cnnc2c1Cl
5. Clc1cccc(N2CCN(c3ccnnc3)CC2)c1

1. > 20 µM
2. > 20 µM
3. > 20 µM
4. > 20 µM
5. > 20 µM

====

- Protocol details: Kinetic solubility of the compound in DPBS buffer at pH 7.4 incubated for 16 hrs under shaking condition by HPLC analysis
- Type: physicochemical
- Condition description: read-out: Kinetic_solubility
Provide the reported solubility kinetic at 16 h of each item.

Compound | solubility kinetic at 16 h
COCCOc1cc(Cl)cc(N2CCN(c3cnnc4c(Cl)cccc34)CC2)c1 | < 1 µM
O=C(O)CCOc1cc(Cl)cc(N2CCN(c3cnnc4c(Cl)cccc34)CC2)c1 | > 200 µM
Clc1cccc(N2CCN(c3cnnc4c(Cl)cccc34)CC2)c1 | < 1 µM
COC(COc1cc(Cl)cc(N2CCN(c3cnnc4c(Cl)cccc34)CC2)c1)OC | < 1 µM
Clc1cc(OCCOC2CCCCO2)cc(N2CCN(c3cnnc4c(Cl)cccc34)CC2)c1 (stereo unspecified) | < 1 µM

Item under review: `Clc1cc(OCCN2CCOCC2)cc(N2CCN(c3cnnc4c(Cl)cccc34)CC2)c1` . Reported solubility kinetic at 16 h?
< 1 µM
